Would you mind telling me the reported self-cleavage of each entry?
B1: Osa-1-4 twister ribozyme (parent)
chain: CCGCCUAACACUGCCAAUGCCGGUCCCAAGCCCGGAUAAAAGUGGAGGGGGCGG

- Variants of: B1
- assay: self-cleavage, relative activity (ratio to wild type); higher = more cleavage; co-transcriptional
Lab note: record just the number, no unit beside it.

Specify measured self-cleavage for C26G C33G . 0.04

Note down self-cleavage recorded for C32U G54U 0.26

Entry A38C C9A needs its self-cleavage filled in; supply it. 0.37

Quick one: give measured self-cleavage for A41U G47A 0.27

Could you please provide reported self-cleavage for A38C A8C ? Thanks! 0.07

Read the entry G35A G50U and write its reported self-cleavage. 0.9

Report self-cleavage, nothing else, for this variant: G42A G49U 0.06

Look up and report measured self-cleavage for this entry: C52U G48U 0.11

Report measured self-cleavage; entry is A41C U43G 0.12

Return self-cleavage for the following variant: A28U G50U 0.95

Give the reported value of self-cleavage for this record: A36C G23C 0.03

Give the reported self-cleavage for this variant. G22C U24C 0.03

Data origin, for the record: the RNAGym collection of RNA variant scans (doi:10.1002/anie.201605470)
